From: patent US7452914B2

# Test system: MCF-7 cells
# ASSAY_OVERVIEW: MCF-7 Cell Proliferation Assay (14C-thymidine incorporation)
# Format: cell-based
# ASSAY_CONTEXT: Homo sapiens, MCF7, antagonist mode, 10 nM 17β-estradiol added, 14C-thymidine, read-out: Antagonist (No.)
Entries and their measured IC50 follow.
REPORTED_ENDPOINT: IC50 (µM)

[
  {
    "MOLECULE": "Oc1ccc2c(c1)OC(c1ccc(OCCN3CCCC3)cc1)C1=C2CCC2(C1)SCCS2 (stereo not shown)",
    "OPERATOR_SYMBOL": ">",
    "MEASURED_NUMBER": 10
  },
  {
    "MOLECULE": "Oc1ccc2c(c1)O[C@H](c1ccc(OCCN3CCCCC3)cc1)C1=C2CCC2(C1)SCCS2 (stereo in doubt)",
    "OPERATOR_SYMBOL": "=",
    "MEASURED_NUMBER": 0.672
  },
  {
    "MOLECULE": "O=S1(=O)CCCS(=O)(=O)C12CCC1=C(C2)C(c2ccc(OCCN3CCCCC3)cc2)Oc2cc(O)ccc21 (stereo not shown)",
    "OPERATOR_SYMBOL": ">",
    "MEASURED_NUMBER": 10
  },
  {
    "MOLECULE": "Oc1ccc2c(c1)OC(c1ccc(OCCN3CCCCC3)cc1)C1=C2CCC2(C1)SCCS2 (stereo not shown)",
    "OPERATOR_SYMBOL": "=",
    "MEASURED_NUMBER": 1.06
  },
  {
    "MOLECULE": "Oc1ccc2c(c1)O[C@@H](c1ccc(OCCN3CCCCC3)cc1)C1=C2CCC2(C1)SCCS2 (stereo in doubt)",
    "OPERATOR_SYMBOL": ">",
    "MEASURED_NUMBER": 10
  },
  {
    "MOLECULE": "CCN(CC)CCOc1ccc(C2Oc3cc(O)ccc3C3=C2CC2(CC3)SCCS2)cc1 (stereo not shown)",
    "OPERATOR_SYMBOL": "=",
    "MEASURED_NUMBER": 4.97
  },
  {
    "MOLECULE": "Oc1ccc2c(c1)OC(c1ccc(OCCN3CCCCC3)cc1)C1=C2CCC2(C1)SCCCS2 (stereo not shown)",
    "OPERATOR_SYMBOL": "=",
    "MEASURED_NUMBER": 0.686
  }
]
